Where these numbers come from: patent US20160215040A1

- assay target: T1, Ebola virus GP with a C-terminal polyhistidine tag (Sino Biologicals, Catalog #40442-V08B1) (Ebola virus, UniProt P87666 33-650)
- T1 construct: also called EbolaGP.his; Ebola virus GP.his
- experiment: SPR 25C, mAb captured

{"binder": "H1H17151P (antibody, V domains shown) VH: EVQLVESGGGLVQPGGSLRLSCAASGFTFSSYAMNWVRQAPGKGLEWVSVISGSGGWRNYADSVKGRITISRDNSKNTLYLQMNNLRAEDTAVYYCAKDRGATFGVVILGPPYYGMDVWGQGTTVTVSS VL: DIQMTQSPSSLSASVRDRVTITCRASQSISTYLNWYQQKPGKAPKLLIYAASSLQSGVPSRFSGSGSGTGFTLTISSLQPEDFATYYCQQSYSIPYTFGQGTKLEIK", "readout unit": "s⁻¹", "inequality sign": "=", "koff": "9.44e-05"}
{"binder": "H1H17223P (antibody, V domains shown) VH: EVQLVESGGGLVQPGGSLRLSCAASGFTFRTYDMHWVRQATGKGLEWVSAIGTAGDTYYPGSVKGRFTISRENAKNSLYLQMNSLRAGDTAVYYCARTIFGVVLTFDYWGQGTLVTVSS VL: DIQMTQSPSSLSASVGDRVTITCRASQSISSSLNWYQQKPGKAPKLLIYAASSLHSGVPSRFSGSGSGTDFTLTISSLQPEDFATYYCQQTYSIPPTTFGQGTKVEIK", "readout unit": "s⁻¹", "inequality sign": "=", "koff": "6.08e-05"}
{"binder": "H1M17354N (antibody, V domains shown, also called HCAF05C08-22) VH: QVQLVQSGAEVKKPGASVKVSCKASGYTFTSYYMHWVRQAPGQGLEWLGIINPSGGSTSYAQKFQGRVTMTRDTSTSTVYMELSSLRSEDTAVYYCARETGEAGEVFNYWGQGTQVTVSS VL: DIQMTQSPSSLSASVGDRVTITCRASQIISRYLNWYQHKPGKAPKVLIYAASTLQSGVPSRFSGSGSGTDFTLTISSLQPEDFATYYCQQSYSTPPITFGQGTRLEIK", "readout unit": "s⁻¹", "inequality sign": "=", "koff": 0.00316}
{"binder": "H1H17203P (antibody, V domains shown) VH: QVQLVESGGGVVQPGRSLRLSCAASGFTFNNYGMHWVRQAPGMGLEWVAVIWHDGSDKYYADSVKGRFTISRDNSKNTLYLQMNSLRAEDTAVYYCARNWNLFDYWGQGTLVTVSS VL: DIQMTQSPSSLSASVGDRITITCRASQSISTYLHWYQQKPGKAPKLLIYAASTLQSGVPSRFSGSGSGTDFTLTISSLQPEDFATYYCQQSFSTPPINFGQGTKLEIK", "readout unit": "s⁻¹", "inequality sign": "=", "koff": 0.000168}
{"binder": "H1H17196P (antibody, V domains shown) VH: EVQLVESGGGLVQPGGSLRLSCAASGFTFRSYDMHWVRQGSGKGLEWVSAIGTAGDTYYLGSVKGRFTISRENAKNSLYLQMNSLRAGDTAVYYCARAWFGDVFLDYWGQGTLVTVSS VL: EIVMTQSPATLSVSPGERATLSCRASQSVSSNLAWYQQKPGQAPRLLIYGASTRATGIPARFSGSGSGTEFTLTISSLQSEDFAGYYCQQYNNRLTFGGGTKVEIK", "readout unit": "s⁻¹", "inequality sign": "≤", "koff": "1e-05"}
{"binder": "H1H17199P (antibody, V domains shown) VH: EVQLVESGGGLVQPGGSLRLSCAASGFTFSDHYMVWVRQAPGKGLEWVGRTRNKANSYSTEYAASVKGRFTISRDDSKKSLYLQMNSLKTEDTAVYYCARGGETLWFGESNYGMDVWGQGTTVTVSS VL: EIVLTQSPDTLSLSPGERATLSCRASQSVSSTYLAWYQQKPGQAPSLLIYGASSRATGIPDRFSGSGSGTDFTLTISRLEPEDFAVYYCQQYGRSPLTFGGGTKVEIK", "readout unit": "s⁻¹", "inequality sign": "=", "koff": 0.000236}
{"binder": "H1H17142P (antibody, V domains shown) VH: EVQLVESGGGLVQPGGSLRLSCAASGFTFSSYAMTWVRQAPGKGLEWVSSISGSGTSTYYADSVKGRFTISRDNSKNTLYLQMNSLRAEDTALYYCSRDIYTWNFLSLIGGMDVWGQGTTVTVSS VL: DIQMTQSPSSLSASVGDRVTITCRASQGIRIDLGWYQQKPGKAPNRLIYAASSLQGGVPSRFSGSGSGTEFTLTISSLQPEDFATYYCLQQNSYPWTFGQGTKVEIK", "readout unit": "s⁻¹", "inequality sign": "=", "koff": "2.81e-05"}
{"binder": "H1H17162P (antibody, V domains shown) VH: EVQLVESGGGLVQPGGSLRLSCAASEFTFSSYAMSWVRQAPGKGLEWVSAISGSSGSTYYADSVKGRFTISRDNSKKTLYLQMNSLRVEDTAVYYCAKGGYPHSFDIWGHGTMVTVSS VL: DIQMTQSPSSLSASVGDRVTITCRASQSISSFLNWYQQKPGKAPKLLIYAASSLQSGVPSRFSGSGSGTDFTLTISSLQPEDFATYYCQQSYSSITFGQGTRLEIK", "readout unit": "s⁻¹", "inequality sign": "≤", "koff": "1e-05"}
